# Test system: EKVX NSCLC
# Assay info: NCI tumour cell line growth inhibition, 48 h
GI50 for assorted compounds

Worked cases, answers included:
Compound	GI50
O=C(COc1cccc(/C=C2\Oc3ccc4ccccc4c3C2=O)c1)c1ccc(Cl)cc1	> 100000 nM
Nc1c(C(=O)N/N=C/c2ccc(-c3cc(Cl)c(Cl)cc3Cl)o2)cnn1-c1ccnc2c(C(F)(F)F)cccc12	3090 nM
CCOc1nccc2c1nc(-c1nonc1N)n2CC	> 25000 nM
COc1cccc(C2SC(C)C(=O)N2CCc2cccs2)c1 (stereo not given)	1490 nM

From here, focus on the item given below.
The compound identified as CCNNC(=O)[C@@H]1[C@H](c2cc(OC)c(OC)c(OC)c2)c2cc3c(cc2[C@H](O)[C@H]1CO)OCO3 registered its GI50 at 519 nM

----------
Parameter TGI: see the listing below.
# System: SR leukemia
# Assay info: NCI tumour cell line growth inhibition, 48 h
Give your result in µM as a bare value.

Compound	TGI (µM)
CC(=O)OC1CCC2C(=CCC3C2(C)C(=O)CC2(C)C(C4(C)OC(C(C)C)=CC4=O)C(O)CC32C)C1(C)C (stereo not given)	72.5

Sure, the documented TGI for CS/C(c1ccccc1)=[N+](\[O-])Cc1ccccc1 is 43.3

----------
# Test system: CCRF-CEM leukemia
# Assay info: NCI tumour cell line growth inhibition, 48 h
Assay metric: TGI (µM)
// return numeric value only (unit: µM, not printed)

Example entries begin here.
Compound	Reading
Cc1ccc(S(=O)(=O)N/N=C2/CCC(C(C)(C)C)CC2Br)cc1 (stereo unspecified)	64.2
CCOc1ccc(/C=C2\NC(=S)N(/C=C3\C(=O)Oc4ccccc4C3=O)C2=O)cc1	40.4

In the following, a different compound is considered.
Looking up CC(=O)OC(C)c1cc2c(s1)C(=O)c1c(C(C)OC(C)=O)csc1C2=O (stereo unspecified) , I see its TGI listed as 4.44

----------
# Test system: IGROV1 ovarian
# Assay info: NCI tumour cell line growth inhibition, 48 h
Assay metric: GI50

Some entries whose results are on file:
Compound	GI50
Cc1nc2c(N3CCCC3)nc(N3CCNCC3)nc2nc1NCc1ccccc1	4.49 µM
Nc1ccc(C(OC(=O)c2cc3ccccc3c(Cc3c(O)c(C(=O)OC(c4ccc(N)cc4)(c4ccc(N)cc4)c4ccc(N)cc4)cc4ccccc34)c2O)(c2ccc(N)cc2)c2ccc(N)cc2)cc1	9.89 µM
CCN(CC)CCOC(=O)Cc1cccc2c(=O)cc(-c3ccccc3)oc12	82.9 µM
CC1=CCC[C@H]2[C@](C)(CC3=CC(=O)C(Sc4ccccc4)=CC3=O)[C@@H](C)CC[C@]12C	16.2 µM
O=C(N/N=C/c1ccc(Cl)cc1Cl)c1ccc2nc(-c3ccc(Cl)cc3)[nH]c2c1	1.5 µM
C=C1C(OC/C=C/COC2O[C@@H]3O[C@@]4(C)CC[C@H]5[C@H](C)CC[C@@H](C2=C)[C@@]35OO4)O[C@@H]2O[C@@]3(C)CC[C@H]4[C@H](C)CC[C@@H]1[C@@]24OO3 (stereo partly drawn)	1.6 µM

Reported GI50 for COc1cc(C2CC(=O)Nc3c2ccc2ccccc32)cc(Br)c1OC (stereo not drawn) was 0.86 µM

GI50 recorded for this compound, CN(C)CCCCn1ccc2c1C(=O)c1c(c(O)c3ccccc3c1O)C2=O , is 18.6 µM
